The reported measurements were obtained from patent US10221177B2.

# Test system: CFA-induced cold hypersensitivity of the hind paw
# protocolText: CFA-induced pain test, cold hypersensitivity (cold plate paw withdrawal latency)
# Assay type: in vivo
# conditionDescription: 1 mg/kg PO, 1-2 hour pre-treatment; cold plate 1° C.; solution in 4% DMSO; 5% Tween-80; 20% Cremophor EL; and 71% water
measuredProperty: Average PWL Post-Treatment
Please give only the number in your answer, with no unit.

| compound | Average PWL Post-Treatment |
| --- | --- |
| Cc1noc(Cn2c(=O)c3c(ncn3[C@@H](C)C(=O)Nc3cccc(-c4cnc(C(F)(F)F)nc4)n3)n(C)c2=O)n1 | 295.1 |

Test item CC(=O)Cn1c(=O)c2c(ncn2[C@@H](C)C(=O)Nc2cccc(-c3cnc(N4CC5C(C4)C5(F)F)nc3)n2)n(C)c1=O (stereo partly drawn) ; CFA-induced cold hypersensitivity of the hind paw; reported Average PWL Post-Treatment was 224.8

Per the reported CFA-induced cold hypersensitivity of the hind paw data, C[C@@H](C(=O)Nc1csc(-c2cnc(N3CC4CC4C3)nc2)n1)n1cnc2c1c(=O)n(CC#N)c(=O)n2C (stereo partly drawn) has Average PWL Post-Treatment of 205.4

Bench note, CFA-induced cold hypersensitivity of the hind paw: entry CC(=O)Cn1c(=O)c2c(ncn2[C@@H](C)C(=O)Nc2cccc(-c3cnc(C)c(C(F)(F)F)c3)n2)n(C)c1=O , its Average PWL Post-Treatment = 262.7

COCC(=O)Cn1c(=O)c2c(ncn2[C@@H](C)C(=O)Nc2csc(-c3cnc(N4CC5CC5C4)nc3)n2)n(C)c1=O (stereo partly drawn) tested on CFA-induced cold hypersensitivity of the hind paw gave Average PWL Post-Treatment: 215.2

Fill in: CFA-induced cold hypersensitivity of the hind paw Average PWL Post-Treatment for CCC(=O)Cn1c(=O)c2c(ncn2[C@@H](C)C(=O)Nc2csc(-c3cnc(N4CCC[C@H]4C(F)(F)F)nc3)n2)n(C)c1=O = 246.8

====

# testedSystem: UniProt O75762
# Sequence (O75762 whole entry): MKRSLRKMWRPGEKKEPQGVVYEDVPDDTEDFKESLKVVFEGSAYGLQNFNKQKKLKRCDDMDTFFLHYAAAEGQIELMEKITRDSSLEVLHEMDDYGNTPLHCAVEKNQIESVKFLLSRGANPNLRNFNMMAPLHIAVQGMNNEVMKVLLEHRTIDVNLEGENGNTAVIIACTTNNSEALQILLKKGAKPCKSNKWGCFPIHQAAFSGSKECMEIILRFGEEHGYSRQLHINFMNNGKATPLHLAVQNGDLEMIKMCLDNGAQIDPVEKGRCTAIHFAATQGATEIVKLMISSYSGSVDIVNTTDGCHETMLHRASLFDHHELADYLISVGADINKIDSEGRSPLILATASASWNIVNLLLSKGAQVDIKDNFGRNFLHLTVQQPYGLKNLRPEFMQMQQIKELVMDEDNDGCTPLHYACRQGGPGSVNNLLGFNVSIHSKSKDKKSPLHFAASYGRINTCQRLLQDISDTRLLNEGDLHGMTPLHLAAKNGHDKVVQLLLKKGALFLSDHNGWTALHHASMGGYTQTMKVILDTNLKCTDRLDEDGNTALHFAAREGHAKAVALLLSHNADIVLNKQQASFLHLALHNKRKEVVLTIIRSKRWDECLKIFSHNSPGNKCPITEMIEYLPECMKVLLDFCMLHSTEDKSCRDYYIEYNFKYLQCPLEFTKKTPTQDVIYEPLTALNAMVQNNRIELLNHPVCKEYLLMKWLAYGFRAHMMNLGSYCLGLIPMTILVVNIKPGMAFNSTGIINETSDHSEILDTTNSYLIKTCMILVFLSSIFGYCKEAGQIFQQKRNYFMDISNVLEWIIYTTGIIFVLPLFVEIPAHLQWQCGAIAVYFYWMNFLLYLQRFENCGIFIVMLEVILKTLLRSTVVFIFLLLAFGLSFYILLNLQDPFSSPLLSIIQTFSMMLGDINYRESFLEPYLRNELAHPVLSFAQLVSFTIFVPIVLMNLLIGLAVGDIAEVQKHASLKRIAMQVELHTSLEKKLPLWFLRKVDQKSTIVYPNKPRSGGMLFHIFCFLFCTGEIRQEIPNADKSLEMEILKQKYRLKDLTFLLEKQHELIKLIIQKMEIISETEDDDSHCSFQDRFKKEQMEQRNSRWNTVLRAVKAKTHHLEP
# protocolText: In vitro inhibition of human TRPA1, whole cell patch configuration
# conditionDescription: current activation 10 μM AITC, tested concentrations 320 pM to 3.2 μM, read-out: hTRPA1 IC50
Recorded IC50 for the following molecules
Record the value in nM, omitting the unit from your answer.

| molecule | measuredProperty | reportedResult |
| --- | --- | --- |
| Cc1cc(Cn2c(=O)c3c(ncn3[C@@H](C)C(=O)Nc3cncc(-c4cnc(C(F)(F)F)c(C)c4)n3)n(C)c2=O)no1 | IC50 | 8 |

Data point: CCC(=O)Cn1c(=O)c2c(ncn2[C@@H](C)C(=O)Nc2cncc(-c3cnc(N4CC5CC5C4)cn3)n2)n(C)c1=O (stereo partly shown) ; IC50 = 6

Reported IC50 for Cc1cc(Cn2c(=O)c3c(ncn3[C@@H](C)C(=O)Nc3csc(-c4cnc(C(F)(F)F)nc4)n3)n(C)c2=O)no1 was 3

Memo: C[C@@H](C(=O)Nc1cccc(-c2cnc(N3CC4C(C3)C4(F)F)nc2)n1)n1cnc2c1c(=O)n(CC#N)c(=O)n2C (stereo partly shown) , reported IC50: 3

Input CC(=O)Cn1c(=O)c2c(ncn2CC(=O)Nc2cccc(-c3ccc(Cl)cc3)n2)n(C)c1=O . Output IC50: 19

IC50 reported for this molecule CCC(=O)Cn1c(=O)c2c(ncn2[C@@H](C)C(=O)Nc2cncc(-c3cnc(N4CC5C(C4)C5(F)F)nc3)n2)n(C)c1=O (stereo partly shown) : 3
